Assay: Solubility of compound A in JP dissolution test fluids
Assay type: physicochemical
Conditions: aqueous buffer; second fluid for a dissolution test of the Japanese Pharmacopoeia, JP2 (pH 6.8); read-out: solubility in a neutral pH range

{"columns": ["molecule", "solubility"],
 "data": [
  ["CC[C@@H]1CCCN1Cc1sc(NC(=O)c2cnc(N3CCC(C(=O)O)CC3)cn2)nc1-c1ccc(OC)c(C(F)(F)F)c1 [Compound A]", "~17.8 µg/mL"]
]}

###

Experiment: Solubility of compound A in JP dissolution test fluids
Assay type: physicochemical
Details: simulated gastric fluid; first fluid for a dissolution test of the Japanese Pharmacopoeia, JP1 (pH 1.2); read-out: solubility in an acidic pH range
metricName: solubility

{"columns": ["molSmiles", "metricName", "value"],
 "data": [
  ["CC[C@@H]1CCCN1Cc1sc(NC(=O)c2cnc(N3CCC(C(=O)O)CC3)cn2)nc1-c1ccc(OC)c(C(F)(F)F)c1", "solubility", "~44.1 µg/mL"]
]}
